Experiment: Acute toxicity: mortality during 24 hours after oral administration
Format: in vivo
Conditions: mouse, in vivo, mice, mortality during 24 hours
value.type: LD50 at 24 h

Example compounds with recorded LD50 at 24 h:
CCc1ccc(C(=O)C(C)CN2CCCCC2)cc1.Cl (stereo not shown) ... 800 to 1000 mg/kg
CCCc1ccc(C(=O)C(C)CN2CCCCC2)cc1.Cl (stereo not shown) ... 1000 to 1500 mg/kg
Cc1ccc(C(=O)C(C)CN2CCCCC2)cc1.Cl (stereo not shown) [Compound for Control, reference compound] ... 1000 to 1500 mg/kg

Attention now shifts to the item below.
# input Any idea what LD50 at 24 h was measured for CC(CN1CCCCC1)C(=O)c1ccc(C(C)C)cc1.Cl (stereo not shown) ?
# output 400 to 500 mg/kg
